- Test system: MOLP-8 cells
- ASSAY_REMARKS: MOLP-8 cell proliferation assay (alamarBlue)
- Assay type: cell-based
- TEST_SETTINGS: inhibition of cell proliferation, 120 hours, human multiple myeloma cell line
PROPERTY_MEASURED: IC50 (nM)
One number for each entry, in nM.

Worked set:
Asked: Report IC50 from MOLP-8 cells testing of C[C@@H]1C(=O)N(C)c2ccc(Nc3ccc(C(=O)NC4CCN(C)CC4)cc3)cc2N1Cc1c(F)cccc1F (stereo in doubt)
Given back: 1740

Asked: Report IC50 from MOLP-8 cells testing of C[C@@H]1C(=O)N(C)c2ccc(Nc3ccc(C(=O)NC4CC4)cc3)cc2N1C1CCOCC1
Given back: 1390

Asked: Report IC50 from MOLP-8 cells testing of C[C@@H]1C(=O)N(C)c2ccc(Nc3ccc(C(=O)NC4CCC(N5CCN(CC6CC6)CC5)CC4)cc3)cc2N1Cc1c(F)cccc1F (stereo in doubt)
Given back: 6620

Fill in IC50 for each of the 3 compounds listed.
1. COc1cc(C(=O)NC2CCC(N3CCN(CC4CC4)CC3)CC2)ccc1Nc1ccc2c(c1)N(C1CCOCC1)[C@H](C)C(=O)N2C (stereo partly shown)
2. C[C@@H]1C(=O)N(C)c2ccc(Nc3ccc(C(=O)NCC4COC4)cc3)cc2N1C1CCOCC1
3. COc1ccc(CN2c3cc(Nc4ccc(C(=O)N5CC6(COC6)C5)cc4)ccc3N(C)C(=O)[C@H]2C)cc1

Given back:
1: 479; 2: 1800; 3: 120

Asked: Report IC50 from MOLP-8 cells testing of C[C@@H]1C(=O)N(C)c2ccc(Nc3ccc(C(=O)N4CC5(COC5)C4)cc3)cc2N1C1CCOCC1
Given back: 1120

====

- STUDY_TARGET: BRD4 Bromo Domain 1 [BRD4(1)] (Homo sapiens)
- Construct: N-terminally His6-tagged BRD4(1) (amino acids 67-152)
- ASSAY_REMARKS: BRD4(1)/acetylated peptide H4 binding assay (TR-FRET)
- TEST_SETTINGS: inhibition of interaction between His6-tagged BRD4(1) (amino acids 67-152) and acetylated histone H4 peptide
Give measured pIC50 for each item. Keep answers brief.
One number for each entry, as −log10 of the molar value.

Worked set:
Asked: Determine from records and report pIC50 for COc1cc(C(=O)N2CCN(C)CC2)ccc1Nc1ccc2c(c1)N(C1CCOCC1)[C@H](C)C(=O)N2C
Given back: 6.57

Asked: Determine from records and report pIC50 for COc1ccc(CN2c3cc(Nc4ccc(C(=O)NCC5COC5)cc4)ccc3N(C)C(=O)[C@H]2C)cc1
Given back: 6.83

Asked: Determine from records and report pIC50 for CC(C)NC(=O)c1ccc(Nc2ccc3c(c2)N(C2CCCC2)[C@H](C)C(=O)N3C)cc1
Given back: 6.78

Asked: Determine from records and report pIC50 for COc1ccc(CN2c3cc(Nc4ccc(C(=O)N5CCOCC5)cc4)ccc3N(C)C(=O)[C@H]2C)cc1
Given back: 6.72

Note: attention shifts to another entry.
Asked: Determine from records and report pIC50 for C[C@@H]1C(=O)N(C)c2ccc(Nc3ccc(C(=O)NC4CCN(C)CC4)cc3)cc2N1C1CCCCCC1
Given back: 6.75

====

- STUDY_TARGET: BRD4 Bromo Domain 2 [BRD4(2)] (Homo sapiens, UniProt O60885)
- Construct: N-terminally His6-tagged BRD4(2) (amino acids 357-445)
- ASSAY_REMARKS: BRD4(2)/acetylated peptide H4 binding assay (TR-FRET)
- TEST_SETTINGS: inhibition of interaction between His6-tagged BRD4(2) (amino acids 357-445) and acetylated histone H4 peptide
PROPERTY_MEASURED: IC50 (nM)
Give bare numbers, in nM.

Asked: Report IC50 from BRD4 Bromo Domain 2 [BRD4(2)] (Homo sapiens, UniProt O60885) testing of C[C@@H]1C(=O)N(C)c2ccc(Nc3ccc(C(=O)NC4CC4)cc3)cc2N1C1CCOCC1
Given back: 217

Fill in IC50 for each of the 5 compounds listed.
1. C[C@@H]1C(=O)N(C)c2ccc(Nc3ccc(C(=O)NC4CCC(N5CCN(CC6CC6)CC5)CC4)cc3)cc2N1Cc1c(F)cccc1F (stereo in doubt)
2. C[C@@H]1C(=O)N(C)c2ccc(Nc3ccc(C(=O)NCC4COC4)cc3)cc2N1C1CCCCCC1
3. C[C@@H]1C(=O)N(C)c2ccc(Nc3ccc(S(=O)(=O)N(C)C)cc3)cc2N1C1CCCCCC1
4. CC(C)NC(=O)c1ccc(Nc2ccc3c(c2)N(C2CCCC2)[C@H](C)C(=O)N3C)cc1
5. COc1cc(C(=O)NC2CCC(N3CCN(CC4CC4)CC3)CC2)ccc1Nc1ccc2c(c1)N(C1CCOCC1)[C@H](C)C(=O)N2C (some centres unmarked)

Given back:
386
357
83
159
410

Fill in IC50 for each of the 2 compounds listed.
1. COc1cc(C(=O)N2CCN(C)CC2)ccc1Nc1ccc2c(c1)N(C1CCOCC1)[C@H](C)C(=O)N2C
2. COc1ccc(CN2c3cc(Nc4ccc(S(=O)(=O)N5CCN(C)CC5)cc4)ccc3N(C)C(=O)[C@H]2C)cc1

Given back:
1. 382
2. 54

====

Give measured pIC50 for each item. Keep answers brief.
- Tested on: MOLM-13 cells
- ASSAY_REMARKS: MOLM-13 cell proliferation assay (alamarBlue)
- Type: cell-based
- TEST_SETTINGS: inhibition of cell proliferation, 96 hours, human AML cell line
- Description: In accordance with the invention, the ability of the substances to inhibit cell proliferation was determined Cell viability was determined by means of the alamarBlue® reagent (Invitrogen) in a Victor X3 Multilabel Reader (Perkin Elmer). The excitation wavelength was 530 nm and the emission wavelength […]. […] After overnight incubation at 37° C., the fluorescence values were determined (CI values). […] Subsequently, the fluorescence values were determined (CO values). […]
Numbers only, as −log10 of the molar value.

Worked set:
Asked: Determine from records and report pIC50 for COc1ccc(CN2c3cc(Nc4ccc(S(=O)(=O)N(C)C)cc4)ccc3N(C)C(=O)[C@H]2C)cc1
Given back: 6.84

Asked: Determine from records and report pIC50 for COc1ccc(CN2c3cc(Nc4ccc(C(=O)NCCN5CCN(C)CC5)cc4)ccc3N(C)C(=O)[C@H]2C)cc1
Given back: 6.56

Asked: Determine from records and report pIC50 for C[C@@H]1C(=O)N(C)c2ccc(Nc3ccc(S(=O)(=O)N4CCN(C)CC4)cc3)cc2N1C1CCOCC1
Given back: 5.90

Fill in pIC50 for each of the 6 molecules listed.
1. C[C@@H]1C(=O)N(C)c2ccc(Nc3ccc(S(=O)(=O)N4CCN(C)CC4)cc3)cc2N1Cc1ccccc1
2. C[C@@H]1C(=O)N(C)c2ccc(Nc3ccc(C(=O)NC4CN(C)C4)cc3)cc2N1C1CCOCC1
3. COc1cc(C(=O)NC2CCC(N3CCN(CC4CC4)CC3)CC2)ccc1Nc1ccc2c(c1)N(C1CCOCC1)[C@H](C)C(=O)N2C (stereo partly shown)
4. C[C@@H]1C(=O)N(C)c2ccc(Nc3ccc(C(=O)NCC4COC4)cc3)cc2N1Cc1ccccc1
5. C[C@@H]1C(=O)N(C)c2ccc(Nc3ccc(C(=O)N4CCOCC4)cc3)cc2N1Cc1ccccc1
6. C[C@@H]1C(=O)N(C)c2ccc(Nc3ccc(C(=O)NC4CC4)cc3)cc2N1Cc1ccccc1

Given back:
1. 7.05
2. 5.68
3. 5.97
4. 6.44
5. 6.52
6. 6.28

Fill in pIC50 for each of the 4 molecules listed.
1. C[C@@H]1C(=O)N(C)c2ccc(Nc3ccc(C(=O)NCC4COC4)cc3)cc2N1C1CCOCC1
2. C[C@@H]1C(=O)N(C)c2ccc(Nc3ccc(C(=O)NC4CCN(C)CC4)cc3)cc2N1Cc1ccccc1
3. C[C@@H]1C(=O)N(C)c2ccc(Nc3ccc(C(=O)NCC4COC4)cc3)cc2N1C1CCCCCC1
4. C[C@@H]1C(=O)N(C)c2ccc(Nc3ccc(C(=O)NC4CC4)cc3)cc2N1C1CCCC1

Given back:
1: 5.56; 2: 6.44; 3: 5.87; 4: 6.09

====

Give measured IC50 for each item. Keep answers brief.
- STUDY_TARGET: BRD4 Bromo Domain 1 [BRD4(1)] (Homo sapiens)
- Construct: N-terminally His6-tagged BRD4(1) (amino acids 67-152)
- ASSAY_REMARKS: BRD4(1)/acetylated peptide H4 binding assay (TR-FRET)
- TEST_SETTINGS: inhibition of interaction between His6-tagged BRD4(1) (amino acids 67-152) and acetylated histone H4 peptide
Answers are plain numbers, in nM.

Asked: Determine from records and report IC50 for C[C@@H]1C(=O)N(C)c2ccc(Nc3ccc(C(=O)NC4CCN(C)CC4)cc3)cc2N1C1CCOCC1
Given back: 374

Asked: Determine from records and report IC50 for C[C@@H]1C(=O)N(C)c2ccc(Nc3ccc(C(=O)NCCN4CCN(C)CC4)cc3)cc2N1C1CCOCC1
Given back: 384

Note: attention shifts to another entry.
Asked: Determine from records and report IC50 for CC(C)N1CCN(C(=O)c2ccc(Nc3ccc4c(c3)N(C3CCOCC3)[C@H](C)C(=O)N4C)cc2)CC1
Given back: 310

Entry source: patent US20150344444A1
